# Assay procedure: bioavailability in rats
# Settings: rat, in vivo
Test readout: bioavailability (%)

CCOC(=O)c1ncc2[nH]c3ccc(OCc4ccccc4)cc3c2c1COC = 17
COCc1c(C(=O)OC(C)C)ncc2[nH]c3ccc(OCc4ccccc4)cc3c12 = 32

* * *

# Assay procedure: chimney test (motor discoordination)
# Assay type: in vivo
# Settings: ip, higher ED50 is better, as it indicates lower activity in inducing motor discoordination
Test readout: TD50 (mg/kg)

CCOC(=O)c1ncc2[nH]c3ccc(OCc4ccccc4)cc3c2c1COC [A] = 12.1
